Hello, the source for this data is the RNAGym collection of RNA variant scans (doi:10.1101/gr.219683.116), in case you need it.

B1: mRNA-splicing (parent)
chain: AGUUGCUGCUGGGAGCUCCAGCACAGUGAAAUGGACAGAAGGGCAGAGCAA

Variants of: B1
procedure summary: exon inclusion enrichment index; higher = more inclusion; WT1 exon 5 minigene, HEK293
measure name: exon inclusion enrichment index

Record excerpt, results attached:
INSERT INTO results (sequence_change, result) VALUES
  ('G5U G8U C9U G46C', 0.148),
  ('G5U G8U C9U G41U', 0.17),
  ('G5A C6U U7A G8U C9A G26C U27C', 0.489),
  ('G5C C6G U7C U10C G38C A39U', 0.532),
  ('C6A U7C C9A U10C G38C A39G', 2.65),
  ('C6A U7C C9A U10C C36G A37U', 1.89),
  ('C44G A45C', 0.399),
  ('G5U G8U C9U G13C', 0.0102);

// lookup exon inclusion enrichment index for G5C C6A U7C G8A U10A A20U G21A 0.0323

Now give it for A37C G38U too. 0.0604
